Assay: in vivo;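 also: animals allocated into more than five groups, with five mice per group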
Format: in vivo
Conditions: mouse, in vivo, sc, male ddy mice, subcutaneous injection, Litchfield-Wilcoxon
Where a name gives a salt, the structure may show the parent alone.
property: LD50 at 72 h (mg/kg)
Numbers only, in mg/kg.

Some solved entries appear below for comparison.
molecule	unit_of_measure	LD50 at 72 h
Cc1ccccc1C(=NC1CCCCC1)Nc1ccccc1 [Compound 18, hydrochloride]	mg/kg	740
COc1ccc(C(=Nc2cccc(C)c2)NC2CCCCC2)cc1.Cl [Compound 40]	mg/kg	298

Bench note: what LD50 at 72 h did COc1cccc(N=C(NC2CCCCC2)c2ccccc2C)c1.O=C(O)C(=O)O [Compound 24] show?
891

Where these numbers come from: patent US3988364A
